- Test system: S. typhimurium OMP synthase (orotate phosphoribosyltransferase) (Salmonella enterica, UniProt P08870, DEL102-102/DEL106-106)
- Measurement description: biochemical
Test readout: Kd (µM)

chemical_smiles=O=C(O)c1cc(=O)[nH]c(=O)n1[C@@H]1O[C@H](COP(=O)(O)O)[C@@H](O)[C@H]1O reported_measurement=2

----------
- Test system: S. typhimurium OMP synthase (orotate phosphoribosyltransferase) (Salmonella enterica, UniProt P08870, E101A)
- Measurement description: biochemical
Test readout: Kd (µM)

chemical_smiles=O=P(O)(O)OC[C@H]1O[C@H](OP(=O)(O)OP(=O)(O)O)[C@H](O)[C@@H]1O reported_measurement=36
chemical_smiles=O=C(O)c1cc(=O)[nH]c(=O)n1[C@@H]1O[C@H](COP(=O)(O)O)[C@@H](O)[C@H]1O reported_measurement=12

----------
- Test system: S. typhimurium OMP synthase (orotate phosphoribosyltransferase) (Salmonella enterica, UniProt P08870, D104A)
- Measurement description: biochemical
pKd: −log10 of the molar value.
Test readout: pKd

chemical_smiles=O=P(O)(O)OC[C@H]1O[C@H](OP(=O)(O)OP(=O)(O)O)[C@H](O)[C@@H]1O test_readout=pKd reported_measurement=4.89

----------
Below: a set of entries, each annotated with reported pKd.
- Test system: S. typhimurium OMP synthase (orotate phosphoribosyltransferase) (Salmonella enterica, UniProt P08870, K103A)
- Measurement description: biochemical
pKd: −log10 of the molar value.
Test readout: pKd

chemical_smiles=O=P(O)(O)OC[C@H]1O[C@H](OP(=O)(O)OP(=O)(O)O)[C@H](O)[C@@H]1O reported_measurement=3.90
chemical_smiles=O=C(O)c1cc(=O)[nH]c(=O)n1[C@@H]1O[C@H](COP(=O)(O)O)[C@@H](O)[C@H]1O reported_measurement=5.52

Taken from paper PMC3436960.
